Each entry below carries its reported pIC50.
biological target: Human Nav1.7 (Homo sapiens); assay: IonWorks Barracuda (IWB) automated patch clamp assay; settings: human Nav1.7 currents, HEK cells, population patch-clamp, state- and use-dependent voltage protocol; read-out: hNaV1.7 IWB-U IC50
Sequence (Q15858 whole entry): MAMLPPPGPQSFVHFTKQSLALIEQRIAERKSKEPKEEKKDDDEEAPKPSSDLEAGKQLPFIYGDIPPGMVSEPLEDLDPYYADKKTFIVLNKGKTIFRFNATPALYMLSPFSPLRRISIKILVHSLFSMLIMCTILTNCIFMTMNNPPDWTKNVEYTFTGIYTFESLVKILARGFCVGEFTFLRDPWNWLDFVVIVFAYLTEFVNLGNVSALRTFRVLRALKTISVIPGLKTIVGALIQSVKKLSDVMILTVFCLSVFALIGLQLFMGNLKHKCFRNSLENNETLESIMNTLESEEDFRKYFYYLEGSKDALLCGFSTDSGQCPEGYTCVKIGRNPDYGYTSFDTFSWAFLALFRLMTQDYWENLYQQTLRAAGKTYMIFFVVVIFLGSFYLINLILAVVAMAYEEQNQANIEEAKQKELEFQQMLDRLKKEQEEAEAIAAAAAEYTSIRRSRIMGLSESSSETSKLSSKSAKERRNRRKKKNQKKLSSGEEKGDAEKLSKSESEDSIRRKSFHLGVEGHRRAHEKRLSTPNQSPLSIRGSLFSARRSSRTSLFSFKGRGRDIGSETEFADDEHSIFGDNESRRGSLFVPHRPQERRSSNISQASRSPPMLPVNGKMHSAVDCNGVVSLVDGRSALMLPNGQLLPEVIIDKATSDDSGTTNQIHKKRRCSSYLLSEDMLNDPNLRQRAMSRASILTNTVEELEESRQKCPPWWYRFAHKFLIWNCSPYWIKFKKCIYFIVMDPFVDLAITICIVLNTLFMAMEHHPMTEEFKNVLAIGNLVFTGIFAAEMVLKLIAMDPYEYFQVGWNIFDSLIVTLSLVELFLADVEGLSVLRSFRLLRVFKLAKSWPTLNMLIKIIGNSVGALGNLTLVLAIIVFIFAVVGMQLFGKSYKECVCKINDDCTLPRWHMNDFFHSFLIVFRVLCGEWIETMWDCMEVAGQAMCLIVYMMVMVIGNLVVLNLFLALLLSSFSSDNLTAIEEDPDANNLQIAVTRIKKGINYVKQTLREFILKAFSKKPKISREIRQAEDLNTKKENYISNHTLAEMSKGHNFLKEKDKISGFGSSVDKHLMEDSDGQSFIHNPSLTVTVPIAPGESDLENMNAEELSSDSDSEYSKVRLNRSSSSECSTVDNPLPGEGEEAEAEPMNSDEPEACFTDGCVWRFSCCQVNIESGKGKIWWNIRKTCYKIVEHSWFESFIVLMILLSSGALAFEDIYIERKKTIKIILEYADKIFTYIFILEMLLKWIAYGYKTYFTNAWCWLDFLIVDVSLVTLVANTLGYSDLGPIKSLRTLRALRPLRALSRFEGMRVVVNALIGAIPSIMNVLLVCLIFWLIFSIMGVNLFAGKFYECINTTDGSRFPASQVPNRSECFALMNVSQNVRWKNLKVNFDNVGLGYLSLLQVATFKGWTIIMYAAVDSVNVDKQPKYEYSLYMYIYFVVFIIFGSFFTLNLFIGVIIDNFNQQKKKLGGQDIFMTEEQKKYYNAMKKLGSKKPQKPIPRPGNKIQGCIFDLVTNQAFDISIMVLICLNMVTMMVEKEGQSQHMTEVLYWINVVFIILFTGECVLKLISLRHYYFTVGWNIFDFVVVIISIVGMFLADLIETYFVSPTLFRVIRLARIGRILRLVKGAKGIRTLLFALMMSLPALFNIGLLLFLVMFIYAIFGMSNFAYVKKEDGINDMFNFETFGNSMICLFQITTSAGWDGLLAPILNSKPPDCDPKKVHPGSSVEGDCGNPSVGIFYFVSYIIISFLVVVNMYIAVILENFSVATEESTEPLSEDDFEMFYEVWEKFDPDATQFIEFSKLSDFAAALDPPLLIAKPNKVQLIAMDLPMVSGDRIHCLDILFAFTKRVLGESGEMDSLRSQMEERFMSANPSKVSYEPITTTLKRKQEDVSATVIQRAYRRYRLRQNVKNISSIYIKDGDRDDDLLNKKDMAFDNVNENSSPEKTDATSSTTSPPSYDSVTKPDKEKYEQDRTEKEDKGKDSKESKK
pIC50: −log10 of the molar value.

Molecule	pIC50
COc1cc([C@H]2C[C@](F)(C(F)(F)F)C2)c(F)cc1-n1c(=O)ccc2cc(S(=O)(=O)Nc3ccon3)ccc21 (atropisomer, axis not shown; (P)) [Example 9]	8.70
COc1cc([C@H]2C[C@@](F)(C(F)(F)F)C2)c(F)cc1-n1c(=O)ccc2cc(S(=O)(=O)Nc3ccon3)ccc21 (atropisomer, axis not shown; (P)) [Example 8]	8.30
COc1cc([C@H]2C[C@H](C(F)(F)F)C2)c(F)cc1-n1c(=O)ccc2cc(S(=O)(=O)Nc3ncccn3)ccc21 (atropisomer, axis not shown; (P)) [Example 15]	7.77
COc1cc([C@H]2C[C@H](C(F)(F)F)C2)c(F)cc1-n1c(=O)ccc2cc(S(=O)(=O)Nc3ncco3)ccc21 (atropisomer, axis not shown; (P)) [Example 43]	8.15
COc1cc([C@H]2C[C@@](F)(C(F)(F)F)C2)c(Cl)cc1-n1c(=O)ccc2cc(S(=O)(=O)Nc3ccon3)ccc21 (atropisomer, axis not shown; (P)) [Example 11]	8.70
COc1cc(C2CCC2)c(Cl)cc1-n1c(=O)ccc2cc(S(=O)(=O)Nc3ncco3)ccc21 (atropisomer, axis not shown; (P)) [Example 32]	8.00
COc1cc(C2CC(F)(F)C2)c(F)cc1-n1c(=O)ccc2cc(S(=O)(=O)Nc3ccon3)ccc21 (atropisomer, axis not shown; (P)) [Example 4]	7.82

* * *

system: CYP3A4; assay: Human CYP 3A4 Induction Assay (mRNA, cryopreserved human hepatocytes); format: in vitro ADME; details: 10 uM test compound, 72 hours, percent of control (POC), rifampin positive control
The following compounds are listed with their measured Hu CYP3A4 mRNA Induction (10 uM POC) values.
Experimental readout: Hu CYP3A4 mRNA Induction (10 uM POC) (%)

> print(dat)
                                   compound                  experimental.readout  units  quantitative.result
1  COc1cc(C2CCC2)c(Cl)cc1-n1c(=O)ccc2cc(S(=O)(=O)Nc3ncco3)ccc21 (atropisomer, axis not shown; (P))  Hu CYP3A4 mRNA Induction (10 uM POC)      %                   88
2  COc1cc([C@H]2C[C@H](C(F)(F)F)C2)c(C)cc1-n1c(=O)ccc2cc(S(=O)(=O)Nc3ncccn3)ccc21 (atropisomer, axis not shown; (P))  Hu CYP3A4 mRNA Induction (10 uM POC)      %                49.51
3  COc1cc([C@H]2C[C@H](C(F)(F)F)C2)c(F)cc1-n1c(=O)ccc2cc(S(=O)(=O)Nc3ncccn3)ccc21 (atropisomer, axis not shown; (P))  Hu CYP3A4 mRNA Induction (10 uM POC)      %                   36
4  COc1cc([C@H]2C[C@H](C(F)(F)F)C2)c(F)cc1-n1c(=O)ccc2c(F)c(S(=O)(=O)Nc3ccon3)ccc21 (atropisomer, axis not shown; (P))  Hu CYP3A4 mRNA Induction (10 uM POC)      %                  6.6
